This listing pairs compounds with measured Ki.
# Assayed Target: human A1AR (Homo sapiens (Human))
# Sequence (P30542 whole entry): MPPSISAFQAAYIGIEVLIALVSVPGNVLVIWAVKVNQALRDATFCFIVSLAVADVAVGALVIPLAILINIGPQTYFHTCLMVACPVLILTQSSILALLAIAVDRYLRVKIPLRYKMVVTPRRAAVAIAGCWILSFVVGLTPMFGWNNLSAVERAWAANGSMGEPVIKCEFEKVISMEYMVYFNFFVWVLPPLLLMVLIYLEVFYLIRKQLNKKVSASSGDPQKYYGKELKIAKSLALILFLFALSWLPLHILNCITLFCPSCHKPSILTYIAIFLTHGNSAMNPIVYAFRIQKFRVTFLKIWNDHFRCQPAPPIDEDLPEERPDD
# Assay Procedure: Binding assay to the human A1AR ([3H]R-PIA)
# Experimental Parameters: [3H]R-PIA (2.0 nM), CHO cells; Table 2; read-out: Ki(hA1AR)
# Method: CHO (Chinese hamster ovary) cells expressing the recombinant human ARs (HEK-293 cells were used for the human A2AAR) were cultured in DMEM and F12 (1:1) supplemented with 10% fetal bovine serum, 100 units/ml penicillin, […] streptomycin and 2 μmol/ml glutamine. Cells were harvested by trypsinization. […] The protein concentration was measured using the Bradford assay. […]
Experimental Endpoint: Ki (µM)

Compound: COc1ccc(Nc2nc3ccccc3c3[nH]c(C4CCCC4)nc23)cc1 [Compound 32]
Assayed Target: human A1AR (Homo sapiens (Human))
Experimental Endpoint: Ki
Prefix Operator: =
Assay Result: 4.17
--
Compound: c1ccc(Nc2nc3ccccc3c3[nH]c(C4CCCC4)nc23)cc1 [Compound 30, reference compound]
Assayed Target: human A1AR (Homo sapiens (Human))
Experimental Endpoint: Ki
Prefix Operator: =
Assay Result: 3.42
--
Compound: Clc1ccc(Nc2nc3ccccc3c3[nH]c(C4CCCC4)nc23)cc1Cl [Compound 33]
Assayed Target: human A1AR (Homo sapiens (Human))
Experimental Endpoint: Ki
Prefix Operator: >
Assay Result: 10

----------
# Assayed Target: human A2A AR (Homo sapiens (Human), UniProt P29274)
# Sequence (P29274 whole entry): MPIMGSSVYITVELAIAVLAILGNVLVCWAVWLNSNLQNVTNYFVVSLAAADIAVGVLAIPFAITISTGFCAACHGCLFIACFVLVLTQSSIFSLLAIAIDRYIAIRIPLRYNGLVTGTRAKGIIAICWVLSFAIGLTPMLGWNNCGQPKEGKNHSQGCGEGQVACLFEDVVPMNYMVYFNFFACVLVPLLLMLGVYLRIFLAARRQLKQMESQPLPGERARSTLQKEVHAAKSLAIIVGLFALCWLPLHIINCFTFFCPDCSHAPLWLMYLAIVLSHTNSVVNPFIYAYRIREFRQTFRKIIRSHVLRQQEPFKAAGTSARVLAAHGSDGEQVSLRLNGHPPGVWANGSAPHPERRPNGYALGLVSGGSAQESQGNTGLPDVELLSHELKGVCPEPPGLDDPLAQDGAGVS
# Assay Procedure: Binding assay to the human A2A AR ([3H]CGS21680)
# Experimental Parameters: 10 μM; [3H]CGS 21680 (15 nM), HEK293 cells; Table 2

Compound: Clc1ccc(Nc2nc3ccccc3c3[nH]c(C4CCCC4)nc23)cc1 [Compound 34]
Assayed Target: human A2A AR (Homo sapiens (Human), UniProt P29274)
hA2AAR % displ. at 10 μM: (17%)

Compound: Clc1ccc(Nc2nc3ccccc3c3[nH]c(C4CCCC4)nc23)cc1Cl [Compound 33]
Assayed Target: human A2A AR (Homo sapiens (Human), UniProt P29274)
hA2AAR % displ. at 10 μM: (0%)

Compound: COc1ccc(Nc2nc3ccccc3c3[nH]c(C4CCCC4)nc23)cc1 [Compound 32]
Assayed Target: human A2A AR (Homo sapiens (Human), UniProt P29274)
hA2AAR % displ. at 10 μM: (16%)

Value source: patent US9326978B2
